ASSAY SYSTEM: T1, Human PD-1 protein with histidine and avi tags (ACRO Biosystems, PD1-H82E4) (human, UniProt Q15116 25-167)
T1 construct: Captured on streptavidin (SA) sensors in the BLI assay; not shown: histidine and avi tags
T1 sequence (Q15116 25-167 limits assumed): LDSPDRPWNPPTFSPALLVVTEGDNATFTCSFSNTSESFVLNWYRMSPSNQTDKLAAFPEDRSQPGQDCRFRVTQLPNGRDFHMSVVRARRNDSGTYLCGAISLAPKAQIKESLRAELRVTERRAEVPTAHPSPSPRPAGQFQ
PROCEDURE SUMMARY: BLI (Octet Red96e), PD-1 captured on SA sensor, 1:1 local fit
Could you please report measured koff for the items listed next?
Give bare numbers, in s⁻¹.

BINDER	koff, s⁻¹
PR005096 (VHH, Monovalent single-domain (VH) variant of PR002481 with Flag-6His tag) VHH: EVQLVETGGGLIQPGGSLRLSCAASGFNVSSHYMSWVRQAPGKGREWVSIIDGGGSTYYADSVKGRFTISRDNSKNRLYLQMNSLRAEDTAMYYCARATRVPEKGGYNYPFNYWGQGTLVTVSS	0.000599
PR005101 (VHH, Monovalent single-domain (VH) variant of PR002481 with Flag-6His tag) VHH: EVQLVETGGGLIQPGGSLRLSCAASGFNVSSHYMSWVRQAPGKGREWVSIIDKGGGTYYADSVKGRFTISRDNSKNRLYLQMNSLRAEDTAMYYCARATAVAEKNGYNYPFNYWGQGTLVTVSS	0.000173
PR005090 (VHH, Monovalent single-domain (VH) antibody with Flag-6His tag) VHH: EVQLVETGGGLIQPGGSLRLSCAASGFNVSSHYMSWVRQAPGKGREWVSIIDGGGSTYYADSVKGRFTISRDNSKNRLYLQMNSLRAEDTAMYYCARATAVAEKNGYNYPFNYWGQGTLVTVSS	0.00114
PR005142 (VHH, Monovalent single-domain (VH) variant of PR002481 with Flag-6His tag) VHH: EVQLVETGGGLIQPGGSLRLSCAASGFNVSFYYMSWVRQAPGKGREWVSIIDKGGSGYYAASVKGRFTISRDNSKNRLYLQMNSLRAEDTAMYYCARATEVREKNGYNYPFNYWGQGTLVTVSS	5.55e-05
PR005099 (VHH, Monovalent single-domain (VH) variant of PR002481 with Flag-6His tag) VHH: EVQLVETGGGLIQPGGSLRLSCAASGFNVSSHYMSWVRQAPGKGREWVSIIDSAGSTYYADSVKGRFTISRDNSKNRLYLQMNSLRAEDTAMYYCARATAVAEKNGYNYPFNYWGQGTLVTVSS	0.000455
PR005144 (VHH, Monovalent single-domain (VH) variant of PR002481 with Flag-6His tag) VHH: EVQLVETGGGLIQPGGSLRLSCAASGFNVSFYYMSWVRQAPGKGREWVSIIDKSGSTYYAASVKGRFTISRDNSKNRLYLQMNSLRAEDTAMYYCARATEVREKNGYNYPFNYWGQGTLVTVSS	4.52e-05
PR002481 (antibody, human IgG1, V domains shown, Heavy-chain-only antibody (HCAb), human IgG1 Fc; two heavy chains, no light chain; also called R4004P556D1; anti-PD1 R4004P556D1 HCAb hG1) VH: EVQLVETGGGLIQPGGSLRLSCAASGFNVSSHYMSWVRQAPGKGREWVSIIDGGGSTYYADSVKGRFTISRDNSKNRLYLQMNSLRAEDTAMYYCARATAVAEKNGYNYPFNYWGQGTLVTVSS	0.000768
PR005575 (antibody, human IgG1, V domains shown, no light chain; also called anti-PD1 PR002481Com_24 HCAb hIgG1) VH: EVQLVETGGGLIQPGGSLRLSCAASGFNVASHYMSWVRQAPGKGREWVSIIDKAGSGYYADSVKGRFTISRDNSKNRLYLQMNSLRAEDTAMYYCARATEVREKQGYNYPFNYWGQGTLVTVSS	4.28e-05

List reported koff for each of these binders:
1. PR005093 (VHH, Monovalent single-domain (VH) variant of PR002481 with Flag-6His tag) VHH: EVQLVETGGGLIQPGGSLRLSCAASGFNVSSHYMSWVRQAPGKGREWVSIIDGGGSTYYADSVKGRFTISRDNSKNRLYLQMNSLRAEDTAMYYCARATRVREANGYNYPFNYWGQGTLVTVSS
2. PR005569 (antibody, human IgG1, V domains shown, no light chain; also called anti-PD1 PR002481R2M4_E2 HCAb hIgG1) VH: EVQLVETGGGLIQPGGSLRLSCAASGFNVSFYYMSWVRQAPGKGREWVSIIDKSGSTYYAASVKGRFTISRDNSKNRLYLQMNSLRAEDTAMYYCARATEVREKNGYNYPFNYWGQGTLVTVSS
3. PR005098 (VHH, Monovalent single-domain (VH) variant of PR002481 with Flag-6His tag) VHH: EVQLVETGGGLIQPGGSLRLSCAASGFNVSSHYMSWVRQAPGKGREWVSIIDGGGSTYYADSVKGRFTISRDNSKNRLYLQMNSLRAEDTAMYYCARATQVREKGGYNYPFNYWGQGTLVTVSS
4. PR005097 (VHH, Monovalent single-domain (VH) variant of PR002481 with Flag-6His tag) VHH: EVQLVETGGGLIQPGGSLRLSCAASGFNVSSHYMSWVRQAPGKGREWVSIIDGGGSTYYADSVKGRFTISRDNSKNRLYLQMNSLRAEDTAMYYCARATAVREKNGYNYPFNYWGQGTLVTVSS

0.000636
5.75e-06
0.000394
0.000784

Please report koff for every entry that follows.
1. PR005145 (VHH, Monovalent single-domain (VH) variant of PR002481 with Flag-6His tag) VHH: EVQLVETGGGLIQPGGSLRLSCAASGFNVSFYYMSWVRQAPGKGREWVSIIDKGGSTYYGDSVKGRFTISRDNSKNRLYLQMNSLRAEDTAMYYCARATEVREKNGYNYPFNYWGQGTLVTVSS
2. PR005585 (antibody, human IgG1, V domains shown, no light chain; also called anti-PD1 PR002481Com_35 HCAb hIgG1) VH: EVQLVETGGGLIQPGGSLRLSCAASGFTVSSFYMSWVRQAPGKGREWVSIIDKAGSTYYADSVKGRFTISRDNSKNRLYLQMNSLRAEDTAMYYCARATEVREKQGYNYPFNYWGQGTLVTVSS

5.24e-05
2.22e-05
